Target: IGF1 receptor (IGF1R) (Homo sapiens)
Construct: endogenous in cells
Sequence (P08069 31-1367): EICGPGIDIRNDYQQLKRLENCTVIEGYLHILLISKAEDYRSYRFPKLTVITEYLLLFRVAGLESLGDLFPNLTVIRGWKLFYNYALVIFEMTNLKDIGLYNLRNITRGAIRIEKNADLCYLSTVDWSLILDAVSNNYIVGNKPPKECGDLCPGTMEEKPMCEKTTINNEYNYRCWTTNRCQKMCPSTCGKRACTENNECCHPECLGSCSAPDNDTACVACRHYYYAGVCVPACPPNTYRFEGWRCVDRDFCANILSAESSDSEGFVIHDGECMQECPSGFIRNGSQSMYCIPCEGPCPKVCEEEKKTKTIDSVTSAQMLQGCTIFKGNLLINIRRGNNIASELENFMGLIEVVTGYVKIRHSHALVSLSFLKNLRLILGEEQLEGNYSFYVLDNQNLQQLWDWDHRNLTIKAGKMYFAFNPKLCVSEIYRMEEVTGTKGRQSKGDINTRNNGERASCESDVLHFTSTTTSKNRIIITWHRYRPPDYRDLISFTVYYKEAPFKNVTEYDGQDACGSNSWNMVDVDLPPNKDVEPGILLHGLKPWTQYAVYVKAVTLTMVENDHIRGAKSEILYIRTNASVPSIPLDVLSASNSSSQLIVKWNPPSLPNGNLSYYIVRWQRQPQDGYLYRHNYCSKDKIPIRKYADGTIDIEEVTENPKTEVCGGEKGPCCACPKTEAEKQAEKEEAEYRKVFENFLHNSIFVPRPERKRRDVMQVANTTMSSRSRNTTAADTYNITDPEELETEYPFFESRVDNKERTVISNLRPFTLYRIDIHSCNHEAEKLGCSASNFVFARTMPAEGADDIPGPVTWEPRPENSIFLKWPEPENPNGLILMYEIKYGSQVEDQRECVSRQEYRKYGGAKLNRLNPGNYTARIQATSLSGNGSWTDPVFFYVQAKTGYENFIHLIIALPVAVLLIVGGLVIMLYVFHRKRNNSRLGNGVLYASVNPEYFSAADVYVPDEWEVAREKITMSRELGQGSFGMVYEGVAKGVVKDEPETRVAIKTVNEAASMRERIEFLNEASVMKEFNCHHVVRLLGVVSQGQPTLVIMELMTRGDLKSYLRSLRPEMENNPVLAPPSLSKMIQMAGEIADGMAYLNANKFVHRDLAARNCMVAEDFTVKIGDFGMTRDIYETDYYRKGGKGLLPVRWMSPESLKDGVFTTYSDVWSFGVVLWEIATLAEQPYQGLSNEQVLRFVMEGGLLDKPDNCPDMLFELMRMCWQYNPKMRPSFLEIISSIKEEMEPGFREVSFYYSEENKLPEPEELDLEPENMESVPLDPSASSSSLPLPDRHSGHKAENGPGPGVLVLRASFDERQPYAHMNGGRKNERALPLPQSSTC
Test: Inhibition of IGF1R (ELISA assay), IGF1-stimulated autophosphorylation in cells
Settings: human tumour cells stimulated with IGF1, read-out: IC50 IGF (ELISA)
assay endpoint: IC50 (µM)

Worked cases, answers included:
NCC1CC(n2cc(-c3cccc(OC(F)(F)F)c3)c3c(N)ncnc32)C1 (stereo not drawn) [Compound 18] : 22
C[Si](C)(COc1cccc(-c2cn(C3CC(CN)C3)c3ncnc(N)c23)c1)c1ccccc1 (stereo not drawn) [Compound 8] : 0.81
CC(C)c1cccc(-c2cn(C3CC(CN)C3)c3ncnc(N)c23)c1 (stereo not drawn) [Compound 16] : 22

a = NCC1CC(n2cc(-c3ccc4c(ccn4Cc4ccccc4)c3)c3c(N)ncnc32)C1 (stereo not drawn) [Compound 56]
b = C[Si](C)(C)COc1cccc(-c2cn(C3CC(CN)C3)c3ncnc(N)c23)c1 (stereo not drawn) [Compound 9]
c = NCC1CC(n2cc(-c3cnc4ccccc4c3)c3c(N)ncnc32)C1 (stereo not drawn) [Compound 69]
## Task I would appreciate it if you could sort these 3 molecules by IC50, starting from the smallest number. Returns: the labels arranged in the requested order.
## Result b, a, c
(b: 0.57 µM, a: 4.1 µM, c: 25 µM)

====

Target: IGF1 receptor (IGF1R) (Homo sapiens)
Construct: endogenous in cells
Test: Inhibition of IGF1R (ELISA assay), IGF1-stimulated autophosphorylation in cells
Settings: human tumour cells stimulated with IGF1, read-out: IC50 IGF (ELISA)
pIC50: −log10 of the molar value.
assay endpoint: pIC50

NCC1CC(n2cc(-c3ccncc3)c3c(N)ncnc32)C1 (stereo not drawn) : 4.57
CN(Cc1ccccc1)c1cccc(-c2cn(C3CC(CN)C3)c3ncnc(N)c23)c1 (stereo not drawn) : 4.96
CS(=O)(=O)c1cccc(-c2cn(C3CC(CN)C3)c3ncnc(N)c23)c1 (stereo not drawn) : 5.00

I = NCC1CC(n2cc(-c3ccc(N)cc3)c3c(N)ncnc32)C1 (stereo not drawn)
II = NCC1CC(n2cc(-c3ccco3)c3c(N)ncnc32)C1 (stereo not drawn)
## Task Returns the identifier with the smallest measured pIC50 among I and II . Give the label of your selection.
## Result II
